Assign pIC50 to each entry below.
Target desc: integrin α4β7 (Homo sapiens, UniProt P13612+P26010)
Construct: lymphoma cell strain RPMI-8866 of human B cells, known to express integrin α4β7; endogenous in cells; host or cells: RPMI-8866 (human B lymphoma cell line)
Sequence (P13612 34-1032): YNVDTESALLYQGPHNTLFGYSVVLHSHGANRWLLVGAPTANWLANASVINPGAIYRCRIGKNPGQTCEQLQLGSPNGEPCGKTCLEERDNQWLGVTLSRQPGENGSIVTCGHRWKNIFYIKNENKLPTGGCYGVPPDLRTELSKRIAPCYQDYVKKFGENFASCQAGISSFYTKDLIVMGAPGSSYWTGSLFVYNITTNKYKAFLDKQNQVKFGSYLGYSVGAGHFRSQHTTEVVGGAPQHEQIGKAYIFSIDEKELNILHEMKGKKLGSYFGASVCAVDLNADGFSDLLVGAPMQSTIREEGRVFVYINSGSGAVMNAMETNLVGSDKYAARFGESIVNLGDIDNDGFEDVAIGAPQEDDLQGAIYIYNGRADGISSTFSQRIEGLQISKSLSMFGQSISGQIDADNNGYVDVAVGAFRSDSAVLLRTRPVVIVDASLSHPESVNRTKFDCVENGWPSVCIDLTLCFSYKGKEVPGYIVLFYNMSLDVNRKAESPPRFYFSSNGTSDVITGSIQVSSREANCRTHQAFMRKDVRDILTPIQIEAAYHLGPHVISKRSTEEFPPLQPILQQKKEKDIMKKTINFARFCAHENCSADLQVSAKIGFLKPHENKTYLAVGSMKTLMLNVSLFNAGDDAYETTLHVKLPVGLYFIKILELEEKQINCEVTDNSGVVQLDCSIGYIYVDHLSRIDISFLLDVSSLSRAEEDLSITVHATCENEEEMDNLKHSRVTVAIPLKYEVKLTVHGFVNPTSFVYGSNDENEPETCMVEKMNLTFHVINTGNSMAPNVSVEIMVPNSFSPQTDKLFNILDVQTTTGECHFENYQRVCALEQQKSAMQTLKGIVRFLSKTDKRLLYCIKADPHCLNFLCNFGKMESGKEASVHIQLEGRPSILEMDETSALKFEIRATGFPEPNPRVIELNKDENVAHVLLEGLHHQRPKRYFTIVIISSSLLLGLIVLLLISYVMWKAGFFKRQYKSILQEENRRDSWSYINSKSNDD
Sequence (P26010 20-798): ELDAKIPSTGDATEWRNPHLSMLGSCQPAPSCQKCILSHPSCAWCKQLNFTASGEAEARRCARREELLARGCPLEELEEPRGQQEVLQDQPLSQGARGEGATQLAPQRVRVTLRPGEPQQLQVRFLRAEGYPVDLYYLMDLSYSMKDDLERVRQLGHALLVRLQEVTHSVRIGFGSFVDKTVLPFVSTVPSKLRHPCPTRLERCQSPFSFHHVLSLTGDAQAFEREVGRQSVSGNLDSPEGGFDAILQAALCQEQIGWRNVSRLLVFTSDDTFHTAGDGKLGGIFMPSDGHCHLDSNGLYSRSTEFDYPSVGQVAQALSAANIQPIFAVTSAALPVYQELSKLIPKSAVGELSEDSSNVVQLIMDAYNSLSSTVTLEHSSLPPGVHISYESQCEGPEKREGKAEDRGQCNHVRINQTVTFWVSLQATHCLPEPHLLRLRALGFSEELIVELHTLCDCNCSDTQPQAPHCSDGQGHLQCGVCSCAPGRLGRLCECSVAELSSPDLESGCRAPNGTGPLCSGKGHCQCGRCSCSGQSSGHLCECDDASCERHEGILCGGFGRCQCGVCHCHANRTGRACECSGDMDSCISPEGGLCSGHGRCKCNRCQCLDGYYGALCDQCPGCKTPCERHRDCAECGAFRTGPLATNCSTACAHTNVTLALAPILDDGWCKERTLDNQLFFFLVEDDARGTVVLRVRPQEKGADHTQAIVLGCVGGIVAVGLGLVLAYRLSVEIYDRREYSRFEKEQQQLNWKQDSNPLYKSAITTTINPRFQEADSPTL
Protocol description: VCAM antagonistic activity (VCAM-1/α4β7 binding assay)
Type: cell-based
Measurement parameters: RPMI-8866 cells binding to VCAM-1; read-out: VCAM antagonistic activity (IC50) α4β7
Description: (Test Example) VCAM Antagonistic Activity (VCAM-1/α4β7 Binding Assay): The capacity of a test substance antagonistic to the binding of lymphoma cell strain RPMI-8866 of human B cells, known to express integrin α4β7, to VCAM-1 was determined. […] RPMI-8866 cells were incubated in Dulbecco modified Eagle medium containing 10 μg/ml of Calcein-AM (Wako Pure Chemical Industries, Ltd.) (SIGMA, hereinafter referred to as “DMEM”) at 37° C. for 30 minutes to label with fluorescence. […]
pIC50: −log10 of the molar value.

Notebook: `CCC(CC)(C(=O)N[C@@H](Cc1ccc(NC(=O)c2nc(SC)ncc2Br)cc1)C(=O)O)C(=O)N1CCCC1` , pIC50 read as > 7.70

Notebook: `CCC(CC)(C(=O)N[C@@H](Cc1ccc(NC(=O)c2snnc2-c2ccccc2)cc1)C(=O)O)C(=O)N1CCCC1` , pIC50 read as > 7.70

Notebook: CCC(CC)(C(=O)NC(Cc1ccc(OCc2c(Cl)cccc2Cl)cc1)C(=O)O)C(=O)N1CC2CC1CN2C(C)=O (centres unmarked) , pIC50 read as > 7.70

Record pIC50 per entry; entries follow.
1. CCC(CC)(C(=O)N[C@@H](Cc1ccc(OCc2c(Cl)cccc2Cl)cc1)C(=O)O)C(=O)N1CCC[C@@H](O)C1
2. CCC(CC)(C(=O)N[C@@H](Cc1ccc(OCc2c(Cl)cccc2Cl)cc1)C(=O)O)C(=O)N(C)CCN(C)C
3. CCC(CC)(C(=O)N[C@@H](Cc1ccc(OCc2c(Cl)cccc2Cl)cc1)C(=O)O)C(=O)N1CC[C@@H](N(C)C)C1
4. CCC(CC)(C(=O)N[C@@H](Cc1ccc(OCc2c(Cl)cccc2Cl)cc1)C(=O)O)C(=O)N1CCC(O)CC1
5. CN(C)C(=O)C1(C(=O)N[C@@H](Cc2ccc(NC(=O)c3cc(F)c(F)cc3Cl)cc2)C(=O)O)CC1
6. CN(C)C(=O)C(C)(C)C(=O)N[C@@H](Cc1ccc(OCc2c(Cl)cccc2Cl)cc1)C(=O)O

Result string:
["> 7.70", "7.00 to 7.70", "> 7.70", "7.00 to 7.70", "7.00 to 7.70", "7.00 to 7.70"]

Record pIC50 per entry; entries follow.
1. CN(C)C(=O)C1(C(=O)N[C@@H](Cc2ccc(OCc3c(Cl)cccc3Cl)cc2)C(=O)O)CCC1
2. CCC(CC)(C(=O)NC(Cc1ccc(OCc2c(Cl)cccc2Cl)cc1)C(=O)O)C(=O)N1CCCC(O)C1 (mixture of isomers)
3. CCC(CC)(C(=O)N[C@@H](Cc1ccc(-n2c(=O)c3ccccc3n(CC=Cc3ccccc3)c2=O)cc1)C(=O)O)C(=O)N1CCCC1
4. CCC(CC)(C(=O)N[C@@H](Cc1ccc(NC(=O)c2nc(S(C)(=O)=O)ncc2Cl)cc1)C(=O)O)C(=O)N1CCCC1
5. CCC(CC)(C(=O)N[C@@H](Cc1ccc(NC(=O)c2c(Cl)cccc2Cl)cc1)C(=O)O)C(=O)N1CCCC1
6. CN(C)C(=O)C1(C(=O)N[C@@H](Cc2ccc(NC(=O)c3cc(Br)ccc3Br)cc2)C(=O)O)CC1
7. CCC(CC)(C(=O)N[C@@H](Cc1ccc(NC(=O)c2nc([S+](C)[O-])ncc2Cl)cc1)C(=O)O)C(=O)N1CCCC1 (some centres unmarked)
8. CCC(CC)(C(=O)N[C@@H](Cc1ccc(OCc2c(Cl)cccc2Cl)cc1)C(=O)O)C(=O)N1CCCNCC1

Result string:
1: 5.70 to 7.00; 2: 7.00 to 7.70; 3: 7.00 to 7.70; 4: > 7.70; 5: > 7.70; 6: 5.70 to 7.00; 7: > 7.70; 8: 7.00 to 7.70

Data provenance is patent US7160874B2.
